- System under test: D(3) dopamine receptor (Rattus norvegicus, UniProt P19020)
- Sequence (P19020 whole entry): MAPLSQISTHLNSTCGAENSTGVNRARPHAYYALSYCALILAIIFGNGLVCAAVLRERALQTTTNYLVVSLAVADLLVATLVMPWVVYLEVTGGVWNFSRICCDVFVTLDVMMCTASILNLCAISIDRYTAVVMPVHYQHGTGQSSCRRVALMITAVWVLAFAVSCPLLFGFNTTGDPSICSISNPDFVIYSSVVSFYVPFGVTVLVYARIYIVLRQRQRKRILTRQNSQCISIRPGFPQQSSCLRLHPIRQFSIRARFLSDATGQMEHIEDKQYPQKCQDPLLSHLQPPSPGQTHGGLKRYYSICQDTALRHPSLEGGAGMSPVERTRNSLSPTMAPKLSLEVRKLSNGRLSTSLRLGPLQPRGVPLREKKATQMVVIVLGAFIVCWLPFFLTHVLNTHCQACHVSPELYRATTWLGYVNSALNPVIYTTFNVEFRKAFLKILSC
pKi: −log10 of the molar value.
Property label: pKi

CCCN(CCc1ccsc1)C1Cc2cc(OC)c(OC)cc2C1 :: 7.85
CCCN(CCC)C1Cc2cccc(OC)c2C1 (stereo not given) :: 7.35
CCCN(CCc1cccc(F)c1)C1Cc2cc(OC)c(OC)cc2C1 :: 7.52
CCCN(CCc1cccc(N)c1)C1Cc2cc(OC)c(OC)cc2C1 :: 7.35
CCCN(CC)C1Cc2cc(OC)c(OC)cc2C1 :: 7.19
CCCN(CCC)C1Cc2cccc(O)c2C1 (stereo not given) :: 7.38
CCCN(Cc1ccsc1)C1Cc2cc(OC)c(OC)cc2C1 :: 6.43
CCCN(CCCF)C1Cc2cc(OC)c(OC)cc2C1 :: 6.47
CCCN(CCc1ccc(Br)cc1)C1Cc2cc(OC)c(OC)cc2C1 :: 7.66
CCCN(CCc1ccc(C(N)=O)cc1)C1Cc2cc(OC)c(OC)cc2C1 :: 7.38
CCCN(CCC)C1Cc2ccc(OC)cc2C1 (stereo not given) :: 7.08
CCCN(CCc1csc(N)n1)C1Cc2cc(OC)c(OC)cc2C1 :: 6.87
CCCN(CCc1ccc(OC)cc1)C1Cc2cc(OC)c(OC)cc2C1 :: 7.41
CCCN(CCC)C1Cc2ccc(O)cc2C1 (stereo not given) :: 7.85
CCCN(CCCc1ccccc1)C1Cc2cc(OC)c(OC)cc2C1 :: 7.64
CCCN(CCc1cccnc1)C1Cc2cc(OC)c(OC)cc2C1 :: 6.87
CCCN(CCc1cccs1)C1Cc2cc(OC)c(OC)cc2C1 :: 7.11
CCCN(CCC)C1Cc2cc(OC)c(OC)cc2C1 [PNU-99194A] :: 7.51
CCCN(CCc1ccccc1)C1Cc2cc(OC)c(OC)cc2C1 :: 7.49
CCCCN(CCCC)C1Cc2cc(OC)c(OC)cc2C1 :: 6.74

====

- System under test: D(3) dopamine receptor (Rattus norvegicus) (UniProt P19020)
- Sequence (P19020 whole entry): as the sequence (P19020 whole entry) above
- Protocol description: Inhibition of [3H]spiperone at D3 dopamine receptors on CHO cell membranes; 1000 nM
- Type: cell-based
Hi, to clarify the labels: met covers inhibition from 20% upward, not met covers anything below 20%.

CCCNC1Cc2cc(OC)c(OC)cc2C1 :: not met
COc1cc2c(cc1OC)CC(N1CCCCCC1)C2 :: not met
CCCN(Cc1cccs1)C1Cc2cc(OC)c(OC)cc2C1 :: met
COc1cc2c(cc1OC)CC(N1CCCC1)C2 :: not met
COc1cc2c(cc1OC)CC(N1CCOCC1)C2 :: not met
COc1cc2c(cc1OC)CC(N(CC1CC1)CC1CC1)C2 :: not met
COc1cc2c(cc1OC)CC(N)C2 :: not met
COc1cc2c(cc1OC)CC(N(C)C)C2 :: met
CCCN(C(C)CC)C1Cc2cc(OC)c(OC)cc2C1 (centres undefined) :: not met
CCC(CC)NC1Cc2cc(OC)c(OC)cc2C1 :: not met
COc1cc2c(cc1OC)CC(N(CCCF)CCCF)C2 :: not met
CCC(C)NC1Cc2cc(OC)c(OC)cc2C1 (centres undefined) :: not met
C=CCN(CC=C)C1Cc2cc(OC)c(OC)cc2C1 :: not met

====

- Organism: Rattus norvegicus
- Protocol description: In vitro stability in rat hepatocytes relative to that of PNU-93385.
- Type: functional
- Measurement context: Hepatocyte
Property label: Stability (%)

CCCN(CCc1ccsc1)C1Cc2cc(OC)c(OC)cc2C1 :: 14
CCCN(CCCF)C1Cc2cc(OC)c(OC)cc2C1 :: 9
C=CCN(CC=C)C1Cc2cc(OC)c(OC)cc2C1 :: 13
CCCN(CCc1cccs1)C1Cc2cc(OC)c(OC)cc2C1 :: 26
CCCN(Cc1cccs1)C1Cc2cc(OC)c(OC)cc2C1 :: 35
COc1cc2c(cc1OC)CC(N(CCCF)CCCF)C2 :: 8
CCCN(Cc1ccsc1)C1Cc2cc(OC)c(OC)cc2C1 :: 15

====

- System under test: D(2) dopamine receptor (Rattus norvegicus) (UniProt P61169)
- Protocol description: Inhibition of [3H]-PNU-86170 binding at D2 dopamine receptors on CHO cell membranes; 1000 nM
- Type: cell-based
Kindly note that classification relies on inhibition with these boundaries: bin 1 = under 4%, bin 2 = from 4% up to 20%, bin 3 = 20% and over

COc1cc2c(cc1OC)CC(N1CCCC1)C2 :: bin 2
CCN(CC)C1Cc2cc(OC)c(OC)cc2C1 :: bin 2
CCC(CC)NC1Cc2cc(OC)c(OC)cc2C1 :: bin 1
COc1cc2c(cc1OC)CC(N1CCCCCC1)C2 :: bin 1
COc1cc2c(cc1OC)CC(N1CCOCC1)C2 :: bin 2
CCCNC1Cc2cc(OC)c(OC)cc2C1 :: bin 2
COc1cc2c(cc1OC)CC(N(C)C)C2 :: bin 2
COc1cc2c(cc1OC)CC(N(CC1CC1)CC1CC1)C2 :: bin 2
COc1cc2c(cc1OC)CC(N)C2 :: bin 1
CCCN(CCc1cccs1)C1Cc2cc(OC)c(OC)cc2C1 :: bin 3
CCCCN(CCCC)C1Cc2cc(OC)c(OC)cc2C1 :: bin 3
C=CCN(CC=C)C1Cc2cc(OC)c(OC)cc2C1 :: bin 2
CCCN(C(C)CC)C1Cc2cc(OC)c(OC)cc2C1 (stereo not given) :: bin 1

====

- System under test: D(2) dopamine receptor (Rattus norvegicus)
- Sequence (P61169 whole entry): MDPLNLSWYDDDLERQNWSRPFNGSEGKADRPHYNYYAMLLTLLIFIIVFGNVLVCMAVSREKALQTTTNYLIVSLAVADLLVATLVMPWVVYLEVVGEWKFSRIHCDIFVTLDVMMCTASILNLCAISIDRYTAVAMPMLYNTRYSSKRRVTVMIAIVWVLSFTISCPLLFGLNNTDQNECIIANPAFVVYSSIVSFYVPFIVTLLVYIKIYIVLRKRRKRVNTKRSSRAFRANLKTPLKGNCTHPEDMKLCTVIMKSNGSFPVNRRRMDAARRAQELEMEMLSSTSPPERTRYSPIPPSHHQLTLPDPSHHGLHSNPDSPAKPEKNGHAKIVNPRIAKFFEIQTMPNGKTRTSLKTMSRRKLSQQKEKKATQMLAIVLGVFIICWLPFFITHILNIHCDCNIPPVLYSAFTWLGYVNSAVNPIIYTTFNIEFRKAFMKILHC
- Protocol description: Affinity at D2 dopamine receptor on CHO cell membranes by [3H]PNU-86170 displacement.
Property label: log10 Ki (log10 of the value in nM)

CCCN(CCC)C1Cc2cccc(OC)c2C1 (stereo not given) :: 0.62
CCCN(CCc1ccc(Br)cc1)C1Cc2cc(OC)c(OC)cc2C1 :: 1.99
CCCN(CCC)C1Cc2cccc(O)c2C1 (stereo not given) :: 0.72
CCCN(CCC)C1Cc2ccc(O)cc2C1 (stereo not given) :: 1.72
CCCN(CCc1ccc(OC)cc1)C1Cc2cc(OC)c(OC)cc2C1 :: 2.21
CCCN(CCc1ccc(C(F)(F)F)cc1)C1Cc2cc(OC)c(OC)cc2C1 :: 2.49
CCCN(CCc1csc(N)n1)C1Cc2cc(OC)c(OC)cc2C1 :: 2.42
CCCN(CCc1ccc(OC)c(OC)c1)C1Cc2cc(OC)c(OC)cc2C1 :: 1.82
CCCN(CCCF)C1Cc2cc(OC)c(OC)cc2C1 :: 3.26
CCCN(CCCc1ccccc1)C1Cc2cc(OC)c(OC)cc2C1 :: 2.19
CCCN(CCc1ccccc1)C1Cc2cc(OC)c(OC)cc2C1 :: 1.43
CCCN(CCc1cccnc1)C1Cc2cc(OC)c(OC)cc2C1 :: 2.46
CCCN(CCc1ccsc1)C1Cc2cc(OC)c(OC)cc2C1 :: 1.79
CCCN(CCC)C1Cc2ccc(OC)cc2C1 (stereo not given) :: 2.42
CCCN(Cc1ccsc1)C1Cc2cc(OC)c(OC)cc2C1 :: 3.09
CCCN(CC)C1Cc2cc(OC)c(OC)cc2C1 :: 2.57
CCCN(CCc1cccc(F)c1)C1Cc2cc(OC)c(OC)cc2C1 :: 2.10
CCCN(CCc1cccc(N)c1)C1Cc2cc(OC)c(OC)cc2C1 :: 2.21
CCCN(CCc1ccc(C(N)=O)cc1)C1Cc2cc(OC)c(OC)cc2C1 :: 2.09
CCCN(CCC)C1Cc2cc(OC)c(OC)cc2C1 [PNU-99194A] :: 3.00

====

Notes on pKi obtained with 5-hydroxytryptamine receptor 1A (Rattus norvegicus, UniProt P19327).
Sequence (P19327 whole entry): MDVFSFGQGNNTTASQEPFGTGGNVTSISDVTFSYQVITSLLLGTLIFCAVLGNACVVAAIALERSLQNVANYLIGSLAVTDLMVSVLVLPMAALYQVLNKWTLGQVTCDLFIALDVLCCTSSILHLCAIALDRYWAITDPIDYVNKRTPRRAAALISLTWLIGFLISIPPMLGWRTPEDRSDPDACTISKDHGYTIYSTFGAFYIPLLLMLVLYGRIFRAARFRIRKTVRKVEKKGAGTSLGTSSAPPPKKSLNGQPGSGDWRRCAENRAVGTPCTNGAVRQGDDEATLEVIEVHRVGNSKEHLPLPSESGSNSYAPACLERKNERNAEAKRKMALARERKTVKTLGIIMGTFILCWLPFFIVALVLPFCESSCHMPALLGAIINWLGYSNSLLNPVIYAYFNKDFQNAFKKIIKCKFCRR
pKi: −log10 of the molar value.
Property label: pKi

CCCN(CCC)C1Cc2cccc(OC)c2C1 (stereo not drawn) :: 8.29
CCCN(CCC)C1Cc2cccc(O)c2C1 (stereo not drawn) :: 7.71
